Assay: survival of neuronally-differentiated PC12 cells after NGF withdrawal
Assay type: cell-based, rat
Details: rat; post-mitotic neuronally-differentiated PC12 cells, with NGF, day 3; read-out: death in the presence of NGF
experimental endpoint: cytotoxicity at 72 h

1) CN1CC[C@H](c2c(O)cc(O)c3c(=O)cc(-c4ccccc4Cl)oc23)[C@H](O)C1 :: ~20%

Now turn to the next compound.
query: Give its cytotoxicity at 72 h value. Item: `Cn1cnc2c(NCc3ccccc3)nc(NCCO)nc21`
result: ~20%

###

Experiment: survival of naive PC12 cells with or without serum
Assay type: cell-based, rat
Details: rat, naive pc12 cells; serum-containing medium, day 3; read-out: death of naive PC12 cells in the presence of serum
# cytotoxicity at 72 h listing for each entry below
Report the value in % with no unit label.

1) Cn1cnc2c(NCc3ccccc3)nc(NCCO)nc21 :: 75

Proceed to the following item.
query: // lookup cytotoxicity at 72 h for `CN1CC[C@H](c2c(O)cc(O)c3c(=O)cc(-c4ccccc4Cl)oc23)[C@H](O)C1`
result: 75

// data source = patent US6087366A
